So I've got a bunch of molecules here, and I need their Z score values.
# Tested on: Plasmodium falciparum
# Test: Primary screen in NF54 nanoGlo assay, in single point, at 2uM, 72h
# Assay type: functional, Erythrocyte
# Conditions used: timepoint 72 hour
Among all 150,000 compounds or so, about 540 (0.36%) showed an effect of 50% or more. The sample as a whole holds a higher share of strong results than the screen did.
Keep the answer to the number alone.

Short answer for CCC(C)NCC(O)Cn1c(-c2ccccc2)c(-c2ccccc2)c2cc(C)ccc21 (configuration not stated) : Z score was -10.06

Value of Z score reported for the molecule C[C@H]1CN2C=NC(N3CCN(C(=O)c4ccccc4)CC3)=CC2=N1 is 0.63

// Z score value for Cc1ccc(CNC(=O)CN2CCN(C(=O)Nc3ccc(Cl)cc3)CC2=O)o1 : -1.32

The recorded Z score for entry CC(NCC(O)Cn1c(-c2ccccc2)c(-c2ccccc2)c2ccc3ccccc3c21)c1ccccc1 (configuration not stated) equals -10.69

Record Cc1ccc2c(C3=CCN(C(=O)c4cnc5[nH]c(=O)[nH]c(=O)c5c4)CC3)c[nH]c2c1 , field Z score: -1.15

// field: Z score; key: Cc1nn(-c2nc3ccccc3s2)c(O)c1C(c1ccc(Cl)c(Cl)c1)c1c(C)nn(-c2nc3ccccc3s2)c1O ; value = 0.88

Per the records, this molecule ( CC[C@@H](COc1ccccc1)NC(=O)CC1CCNCC1 ) has Z score equal to -1.66

get_value(item= CC(C1CC1)n1cc(NC(=O)N2CCC(C(F)(F)F)C2(C)C)cn1 (configuration not stated) , readout=Z score) returns 1.23

Entry under test: O=C1N[C@H]2C[C@@H](C(=O)NC[C@H]3O[C@H](CCOc4cc(-c5ccccc5)ccc41)CC[C@@H]3O)N(Cc1ccc(Cl)c(F)c1)C2 . Its Z score was -4.16

// Z score value for Cn1c(C(=O)N2CC[C@H](N)C2)ccc1-c1ccccc1Br : 0.05

Kindly note the recorded Z score for Cc1ccc2c(c1)c(-c1ccccc1)c(-c1ccccc1)n2C[C@@H](O)CNCCCO , which is -0.17

Record Cn1c(C(=O)N2CC[C@H](N)C2)ccc1-c1cccc(Br)c1 , field Z score: -7.09

Lab note: measured Z score of O=C1N[C@H]2C[C@@H](C(=O)NC[C@H]3O[C@H](CCOc4ccccc41)CC[C@@H]3O)N(Cc1ccc3c(c1)OCO3)C2 was -2.92

// sample Cc1nn(-c2ccccc2Cl)c(O)c1C(c1ccsc1)c1c(C)nn(-c2ccccc2Cl)c1O , its Z score was -0.74

// COc1ccc(C(=O)N2c3ncnn3C(c3ccccc3)CC2c2ccc(C)cc2)cc1OC (configuration not stated) : Z score value = -10.75

// sample O=C(Nc1cc(-c2onc3c2CCCC3)cc(C(F)(F)F)c1)c1cncc(Br)c1 , its Z score was -8.79

Item: CC(C)(C[C@H]1CCCN(C(=O)C2(C)CCCC2)C1)C(N)=O | Z score: 0.57

In plain terms, CC[C@H]1CN2C=NC(N3CCN(C(=O)Nc4cc(F)cc(F)c4)CC3)=CC2=N1 has a documented Z score of -4.25

The value of Z score measured for the molecule COc1ccc(Br)cc1NC(=O)N(C)CCCn1ccnc1 turned out to be -0.86

According to the records, this molecule Cn1ncc2c1CCCN(c1nccn3nc(C(F)(F)F)cc13)C2 displays Z score of 1.44

// CCc1ocnc1C(=O)NC1CCCCCC1C(=O)OC (configuration not stated) : Z score value = 0.61

Looking up CC1(C)NC(=O)N(CC(=O)N2CCC[C@H]2c2ccc3c(c2)OCCCO3)C1=O , I see its Z score listed as 1.7

The molecule CCNC(=O)c1cc(NCCc2nccn2Cc2ccccc2)ccn1 showed Z score equal to 0.95

Memo: CC(Nc1ccc(C#N)nc1)C1CCCOC1 (configuration not stated) , reported Z score: -0.15

What the record says about Cc1cc(C(=O)N(CC2CCC2)CC(F)(F)F)[nH]n1 : Z score is 1.63

Measured Z score of CN1CCN(c2cc(N3CCN(C(=O)Cc4ccccc4)CC3)ncn2)CC1 : 0.91

Lab note: measured Z score of Cc1oc(C2CCN(C(=O)Nc3cccc(F)c3C)CC2)nc1C(=O)N1CCCC1 was 0.55

Value of Z score reported for the molecule CCCN1CCC(NCc2ccc(-c3cccc(Cl)c3Cl)o2)CC1 is -11.87

Reported Z score ( Cc1ncc2ncccc2c1Br ) = 0.8

// sample Cc1c(C)n(CC(O)CNC(C)c2ccccc2)c2c(Cl)cccc12 (configuration not stated) , its Z score was -7.71

Z score reported for this molecule COCCN(CCOC)C[C@H](O)Cn1c(-c2ccccc2)c(-c2ccccc2)c2cc(C)ccc21 : 0.06

// Z score value for Clc1cccc(-c2ccc(CNC3CCCCC3)o2)c1 : 1.31

Field Z score (entry Cc1c(C)n(C[C@@H](O)Cn2ccnc2C)c2c(Cl)cccc12 ) reads 0.7

In plain terms, CC(NCC(O)COc1ccc2c(c1)OCO2)c1ccccc1 (configuration not stated) has a documented Z score of 1.69

According to the records, this molecule CCC(=O)N1c2ncnn2C(c2ccc(C)cc2)CC1c1ccccc1 (configuration not stated) displays Z score of -0.41

Record summary for CC[C@H]1CN2C=NC(N3CCN(C(=O)Cc4ccccc4)CC3)=CC2=N1 : reported Z score = -2.27

Field Z score (entry O=C(Nc1cc(Br)cc(C(F)(F)F)c1)c1ccnnc1 ) reads 0.3

Z score measured on Cc1nnc(NCc2ccc(-c3cccc(Cl)c3Cl)o2)n1C = 0.79

response.value for CCc1cccc(NC(=O)N2CCN(C3=CC4=NC[C@H](C)N4C=N3)CC2)c1 (field: Z score) = -5.02

get_value(item= O=C(Cc1ccccc1)N1CCN(c2cc(N3CCCC3)ncn2)CC1 , readout=Z score) returns 0.94

Form field Z score, entry C[C@H]1C(=O)N(C)C[C@@H](COc2ccccc2)N1C(=O)C1CCOCC1 : 0.87

// recorded Z score for CCc1cccc(NC(=O)N2CCN(c3nccs3)CC2)c1 : 0.21

* * *

# Tested on: Plasmodium falciparum
# Test: Primary screen in NF54 nanoGlo assay, in single point, at 2uM, 72h
# Format: functional, Erythrocyte
# Conditions used: timepoint 72 hour
About 540 (0.36%) of roughly 150,000 compounds showed an effect of 50% or more. The sample as a whole holds a higher share of strong results than the screen did.
Could you please report measured % Inhibition for the items listed next?
Report the figure in % without appending any unit label.

Observed % Inhibition, Plasmodium falciparum, COCCN1C[C@@H](c2nc(C3CCOCC3)n[nH]2)CCC1=O : -5

Entry O=c1[nH]nc(Cn2ccnc2)n1Cc1ccc(Cl)cc1Cl under Plasmodium falciparum had % Inhibition of 0

For C[C@@H](NCCCn1ccnc1)c1ccc(Cl)cc1 on Plasmodium falciparum, measured % Inhibition was -4

Case COC(=O)C1(NC(=O)OC(C)(C)C)CC(CN2CCN(C)CC2)C1 (stereo unspecified) , Plasmodium falciparum, % Inhibition recorded as 10

Readout % Inhibition for CN1CCC(N(C)C(=O)c2ccccc2NC2CCCCC2)CC1 , test system Plasmodium falciparum, was 6

Tested on Plasmodium falciparum, the item Clc1ccc(Cn2cc(CNCCCn3ccnc3)c3ccccc32)c(Cl)c1 showed % Inhibition equal to 98

// returns % Inhibition for CCN(C(=O)COc1cccc(C)c1)[C@H](c1ccc(C)cc1)c1c[nH]c2ccccc12 with Plasmodium falciparum; value = 6

Given the compound CC(C)CC[C@@]1(C2CC2)NC(=O)N(Cc2ccc(C#N)cn2)C1=O and test system Plasmodium falciparum, the measured % Inhibition is -14

Form field, % Inhibition with Plasmodium falciparum, item CC(=O)c1ccc(NC(=O)c2cc3n(n2)CCCO3)cc1 : -7

Response field % Inhibition (Plasmodium falciparum) for item c1ccc2c(N3CCCC3)nc(N3CCN(C4CCCCC4)CC3)nc2c1 : -5

Readout % Inhibition for NC1CC(c2cc(N3CCCCCCCC3)ncn2)C1 (stereo unspecified) , test system Plasmodium falciparum, was -23

* * *

# Tested on: Plasmodium falciparum
# Test: Primary screen in NF54 nanoGlo assay, in single point, at 2uM, 72h
# Assay type: functional, Erythrocyte
# Conditions used: timepoint 72 hour
The campaign covered roughly 150,000 compounds. About 540 (0.36%) showed an effect of 50% or more. The sample holds strong results, similar compounds and a random draw of the others, so the mix is not that of the screen.
Readout label: % Inhibition (%)
Numeric only. Scale: %

get_value(item= O=C(Cn1nnc2ccccc21)N(Cc1cccnc1)C1(C(=O)Nc2ccc(N3CCOCC3)cc2)CCCCC1 , readout=% Inhibition) returns 2

The recorded % Inhibition for CCC(CC)N(Cc1ccc2c(c1)OCO2)C(=O)Cc1cccnc1 is 23

// CN(C)c1ccc(NC(=O)C2(N(Cc3ccccc3)C(=O)Cn3nnc4ccccc43)CCCCC2)cc1 : % Inhibition value = 51

The compound identified as O=C(Nc1cnccc1CO)c1csc(C2CCCCC2)c1 registered its % Inhibition at 0

Given item O=C(Cn1nnc2ccccc21)N(Cc1cccnc1)C1(C(=O)Nc2ccc3c(c2)OCO3)CCCCC1 , the value recorded as its % Inhibition is 36

Query CCn1c(-n2nc(C)nc2[C@H]2CCS(=O)(=O)C2)nc2ccccc21 yields % Inhibition of 4

// field: % Inhibition; key: CC(C)[C@@H](C(=O)NCc1cccc(C(F)(F)F)c1)N1CCCS1(=O)=O ; value = -4

Measured % Inhibition, CN(C)c1ccc(NC(=O)C2(N(Cc3ccccc3)C(=O)Cn3nnc4ccccc43)CCCC2)cc1 : 5

The recorded % Inhibition for entry O=C(Cn1nnc2ccccc21)N(Cc1cccnc1)C1(C(=O)Nc2ccc3c(c2)OCO3)CCCC1 equals 5
